molecular target: PI3K p110α (Homo sapiens); construct: full-length recombinant human PI3KCA; experiment: In vitro kinase activity assay, recombinant PI3KCA, phosphatidylinositol phosphorylation (CARNA); conditions: marked with footnote d in Figure 2; 50 µM ATP, 5 h
Sequence (P42336 whole entry): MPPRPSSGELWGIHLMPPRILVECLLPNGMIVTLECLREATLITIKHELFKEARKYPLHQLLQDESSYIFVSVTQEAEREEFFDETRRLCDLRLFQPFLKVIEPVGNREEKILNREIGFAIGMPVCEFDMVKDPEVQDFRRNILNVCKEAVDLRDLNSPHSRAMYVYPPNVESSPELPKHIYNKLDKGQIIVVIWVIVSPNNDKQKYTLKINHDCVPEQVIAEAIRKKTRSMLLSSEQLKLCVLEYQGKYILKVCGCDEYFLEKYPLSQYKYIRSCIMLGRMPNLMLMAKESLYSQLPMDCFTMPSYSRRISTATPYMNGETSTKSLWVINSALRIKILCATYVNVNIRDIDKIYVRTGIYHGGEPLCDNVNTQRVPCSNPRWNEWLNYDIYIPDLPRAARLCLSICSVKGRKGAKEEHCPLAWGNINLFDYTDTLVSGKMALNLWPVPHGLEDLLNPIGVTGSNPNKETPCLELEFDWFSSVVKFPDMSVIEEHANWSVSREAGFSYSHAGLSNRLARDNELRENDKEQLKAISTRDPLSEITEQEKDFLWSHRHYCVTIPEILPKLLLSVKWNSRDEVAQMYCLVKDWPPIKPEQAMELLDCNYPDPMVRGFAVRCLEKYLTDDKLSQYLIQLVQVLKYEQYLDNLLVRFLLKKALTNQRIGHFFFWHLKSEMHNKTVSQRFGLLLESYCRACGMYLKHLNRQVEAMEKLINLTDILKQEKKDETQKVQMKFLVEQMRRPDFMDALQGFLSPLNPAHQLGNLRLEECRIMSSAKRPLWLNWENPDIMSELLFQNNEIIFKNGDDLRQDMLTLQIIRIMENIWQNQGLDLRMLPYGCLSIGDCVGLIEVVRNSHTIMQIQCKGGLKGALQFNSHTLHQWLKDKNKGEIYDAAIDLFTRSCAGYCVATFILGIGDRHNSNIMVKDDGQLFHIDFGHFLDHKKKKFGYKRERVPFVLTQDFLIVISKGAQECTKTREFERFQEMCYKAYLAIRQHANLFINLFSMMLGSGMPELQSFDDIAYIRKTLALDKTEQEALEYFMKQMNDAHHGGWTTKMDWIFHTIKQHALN
Sequence (P27986 whole entry partner): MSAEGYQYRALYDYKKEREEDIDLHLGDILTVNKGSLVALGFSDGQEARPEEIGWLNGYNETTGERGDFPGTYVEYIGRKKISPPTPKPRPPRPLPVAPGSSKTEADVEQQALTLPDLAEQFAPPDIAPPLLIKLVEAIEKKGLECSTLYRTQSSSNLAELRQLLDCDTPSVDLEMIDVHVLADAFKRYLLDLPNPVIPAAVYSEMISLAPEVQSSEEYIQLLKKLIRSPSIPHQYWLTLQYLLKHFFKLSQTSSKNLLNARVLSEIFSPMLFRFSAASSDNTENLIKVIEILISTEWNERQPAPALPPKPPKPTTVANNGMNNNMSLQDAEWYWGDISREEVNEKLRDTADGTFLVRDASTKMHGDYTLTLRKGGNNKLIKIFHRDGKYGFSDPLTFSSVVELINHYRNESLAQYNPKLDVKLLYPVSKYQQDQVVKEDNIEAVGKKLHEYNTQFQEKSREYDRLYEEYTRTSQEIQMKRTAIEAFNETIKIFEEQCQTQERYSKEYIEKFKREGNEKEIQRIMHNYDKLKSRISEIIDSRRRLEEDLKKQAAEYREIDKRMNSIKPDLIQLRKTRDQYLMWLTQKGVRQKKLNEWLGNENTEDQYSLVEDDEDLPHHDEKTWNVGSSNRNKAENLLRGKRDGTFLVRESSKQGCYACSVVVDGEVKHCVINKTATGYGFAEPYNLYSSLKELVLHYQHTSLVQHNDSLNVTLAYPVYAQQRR
Ki values for the compounds below.
METRIC: Ki (µM)

smiles_notation=O=C1NC(=O)/C(=C\c2ccc(-c3cccc(Br)c3)o2)S1 result_value=2.9
smiles_notation=Cc1nc(N2CCOCC2)c2oc3ccccc3c2n1 result_value=4.6

----------
molecular target: MGLUR5 (Homo sapiens, UniProt P41594)
Sequence (P41594 21-1212): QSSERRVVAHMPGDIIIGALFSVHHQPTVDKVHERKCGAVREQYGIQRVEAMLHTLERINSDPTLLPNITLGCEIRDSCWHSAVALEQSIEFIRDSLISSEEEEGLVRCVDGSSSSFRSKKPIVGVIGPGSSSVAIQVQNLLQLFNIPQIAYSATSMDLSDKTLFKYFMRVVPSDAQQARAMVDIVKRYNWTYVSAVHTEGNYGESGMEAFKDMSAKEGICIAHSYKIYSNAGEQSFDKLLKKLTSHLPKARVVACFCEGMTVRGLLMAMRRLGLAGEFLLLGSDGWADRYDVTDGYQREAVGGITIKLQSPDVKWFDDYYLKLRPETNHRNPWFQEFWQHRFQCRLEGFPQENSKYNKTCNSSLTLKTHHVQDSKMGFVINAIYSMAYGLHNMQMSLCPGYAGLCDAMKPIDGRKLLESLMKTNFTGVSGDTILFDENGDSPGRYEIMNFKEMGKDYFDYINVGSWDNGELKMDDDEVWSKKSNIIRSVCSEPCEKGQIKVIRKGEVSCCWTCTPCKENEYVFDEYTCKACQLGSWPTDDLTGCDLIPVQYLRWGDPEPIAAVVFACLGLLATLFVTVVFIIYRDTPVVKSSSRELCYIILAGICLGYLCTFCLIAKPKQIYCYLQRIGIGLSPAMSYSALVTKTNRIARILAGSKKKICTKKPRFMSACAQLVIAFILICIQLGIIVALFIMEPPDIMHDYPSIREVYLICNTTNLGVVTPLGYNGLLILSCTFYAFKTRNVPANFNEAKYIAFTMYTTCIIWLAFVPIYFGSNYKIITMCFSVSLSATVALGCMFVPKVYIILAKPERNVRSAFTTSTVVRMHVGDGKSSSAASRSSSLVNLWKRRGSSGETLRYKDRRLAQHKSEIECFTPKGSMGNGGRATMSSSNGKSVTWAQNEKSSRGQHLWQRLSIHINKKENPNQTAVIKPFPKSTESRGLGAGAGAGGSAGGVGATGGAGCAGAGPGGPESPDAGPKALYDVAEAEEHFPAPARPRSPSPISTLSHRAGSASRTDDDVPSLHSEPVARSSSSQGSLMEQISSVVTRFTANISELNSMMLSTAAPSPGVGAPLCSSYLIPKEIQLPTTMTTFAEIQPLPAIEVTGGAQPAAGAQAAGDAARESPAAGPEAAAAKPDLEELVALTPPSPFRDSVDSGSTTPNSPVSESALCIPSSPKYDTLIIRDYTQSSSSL
pKi: −log10 of the molar value.
METRIC: pKi

compound="Cc1cc(C)c2c(N)c(C(=O)Nc3ccccn3)sc2n1 [B16]" target_of_assay="MGLUR5 (Homo sapiens, UniProt P41594)" result_value="< 4.52"

----------
Target: flt-3 receptor (CD135) (Homo sapiens, UniProt P36888)
Construct: Flt-3 receptor catalytic domain (amino acids 564–993)
Sequence (P36888 564-993): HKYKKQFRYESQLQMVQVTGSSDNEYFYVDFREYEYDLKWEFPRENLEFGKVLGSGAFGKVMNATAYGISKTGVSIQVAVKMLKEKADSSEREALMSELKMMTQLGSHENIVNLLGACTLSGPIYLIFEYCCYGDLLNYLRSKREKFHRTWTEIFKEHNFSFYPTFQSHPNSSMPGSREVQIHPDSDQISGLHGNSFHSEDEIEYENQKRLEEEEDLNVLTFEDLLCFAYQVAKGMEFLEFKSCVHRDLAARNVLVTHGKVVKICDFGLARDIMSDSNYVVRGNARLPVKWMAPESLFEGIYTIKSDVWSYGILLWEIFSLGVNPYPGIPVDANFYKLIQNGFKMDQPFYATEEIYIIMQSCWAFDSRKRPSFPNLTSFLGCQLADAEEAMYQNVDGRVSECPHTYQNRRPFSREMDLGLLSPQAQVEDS
Assay: In vitro kinase activity assay, recombinant Flt-3 receptor catalytic domain, srctide phosphorylation (CARNA)
Details: marked with footnote d in Figure 2; 100 µM ATP, 1 h
Experimental: Tachykinin, ghrelin, and calcium-sensing receptor activity were measured using a cell-based Ca flux assay by Multispan, Inc. (Hayward, California). […] Radioligand binding assays for PPAR-α, γ, δ and the androgen receptor were performed by CEREP, Inc. CARNA Biosciences (Kobe, Japan) performed in vitro kinase activity assays using recombinant catalytic domains and measured phosphorylation of an Src-derived peptide for Flt-3 and phosphatidyl inositol for PI3KCA. […]
METRIC: Ki

compound="Cc1sc(NC(=O)c2ccccc2Br)c(C(N)=O)c1C [D20]" target_of_assay="flt-3 receptor (CD135) (Homo sapiens, UniProt P36888)" result_value="169 nM"

----------
tested on: wild-type C. elegans; assay: Pharyngeal pumping assay; format: in vivo; settings: Caenorhabditis elegans, read-out: EC50 of the dose-dependent increase in the pharyngeal pumping rate
METRIC: EC50 (nM)

compound="O=C1Nc2ccc(F)cc2/C1=C1/Nc2ccccc2C1=NO [5-flurox, 5′-fluoroindirubinoxime, reference compound]" reading_unit=nM result_value=40
compound="COc1cc(OC2CCN(C(C)=O)CC2)ccc1C(=O)N1CCC(N2C(=O)OCc3ccccc32)CC1 [L-371257, reference compound]" reading_unit=nM result_value=10

----------
target: UniProt P30559
Sequence (P30559 whole entry): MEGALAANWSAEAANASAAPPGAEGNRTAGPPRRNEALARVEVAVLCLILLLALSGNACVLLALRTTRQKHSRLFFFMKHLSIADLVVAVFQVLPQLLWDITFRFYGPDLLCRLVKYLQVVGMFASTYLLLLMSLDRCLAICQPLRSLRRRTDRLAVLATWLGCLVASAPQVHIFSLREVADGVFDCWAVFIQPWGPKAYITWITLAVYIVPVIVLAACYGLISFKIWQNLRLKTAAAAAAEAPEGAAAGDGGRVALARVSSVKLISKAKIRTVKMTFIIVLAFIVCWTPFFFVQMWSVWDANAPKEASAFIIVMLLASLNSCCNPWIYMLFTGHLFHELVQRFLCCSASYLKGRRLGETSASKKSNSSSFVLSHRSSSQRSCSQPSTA
pKi: −log10 of the molar value.
METRIC: pKi

smiles_notation=COc1ccc(N(CC(=O)NCc2ccco2)S(=O)(=O)c2ccccc2)cc1Cl metric=pKi result_value=5.74

----------
Sequence of the target: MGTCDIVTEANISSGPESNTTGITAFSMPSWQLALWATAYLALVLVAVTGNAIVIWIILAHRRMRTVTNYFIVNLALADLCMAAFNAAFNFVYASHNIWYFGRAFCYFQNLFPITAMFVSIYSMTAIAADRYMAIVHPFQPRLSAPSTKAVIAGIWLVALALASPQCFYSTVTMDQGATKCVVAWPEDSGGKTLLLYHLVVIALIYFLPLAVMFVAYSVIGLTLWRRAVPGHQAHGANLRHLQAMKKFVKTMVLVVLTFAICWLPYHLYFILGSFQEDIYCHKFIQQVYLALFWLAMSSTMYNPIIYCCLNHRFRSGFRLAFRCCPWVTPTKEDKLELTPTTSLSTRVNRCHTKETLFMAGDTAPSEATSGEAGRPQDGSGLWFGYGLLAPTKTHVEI
pKi: −log10 of the molar value.
METRIC: pKi

compound="COc1ccc(OC)c(-c2cc(NC(=O)c3ccccc3C(N)=O)c3ccccc3n2)c1 [H6]" metric=pKi result_value="< 5.00"
